# tgt: hERG potassium channel (Homo sapiens)
pIC50: −log10 of the molar value.
value-type: pIC50

Param item = CCS(=O)(=O)N1CC(CC#N)(n2cc(-c3ccnc4[nH]ccc34)cn2)C1 [Crystalline form A] ; retrieve measured pIC50.
< 4.52

----------
# tgt: hERG potassium channel (Homo sapiens, UniProt Q12809)
# Construct: purchased Thermo Fisher
# Sequence (Q12809 whole entry): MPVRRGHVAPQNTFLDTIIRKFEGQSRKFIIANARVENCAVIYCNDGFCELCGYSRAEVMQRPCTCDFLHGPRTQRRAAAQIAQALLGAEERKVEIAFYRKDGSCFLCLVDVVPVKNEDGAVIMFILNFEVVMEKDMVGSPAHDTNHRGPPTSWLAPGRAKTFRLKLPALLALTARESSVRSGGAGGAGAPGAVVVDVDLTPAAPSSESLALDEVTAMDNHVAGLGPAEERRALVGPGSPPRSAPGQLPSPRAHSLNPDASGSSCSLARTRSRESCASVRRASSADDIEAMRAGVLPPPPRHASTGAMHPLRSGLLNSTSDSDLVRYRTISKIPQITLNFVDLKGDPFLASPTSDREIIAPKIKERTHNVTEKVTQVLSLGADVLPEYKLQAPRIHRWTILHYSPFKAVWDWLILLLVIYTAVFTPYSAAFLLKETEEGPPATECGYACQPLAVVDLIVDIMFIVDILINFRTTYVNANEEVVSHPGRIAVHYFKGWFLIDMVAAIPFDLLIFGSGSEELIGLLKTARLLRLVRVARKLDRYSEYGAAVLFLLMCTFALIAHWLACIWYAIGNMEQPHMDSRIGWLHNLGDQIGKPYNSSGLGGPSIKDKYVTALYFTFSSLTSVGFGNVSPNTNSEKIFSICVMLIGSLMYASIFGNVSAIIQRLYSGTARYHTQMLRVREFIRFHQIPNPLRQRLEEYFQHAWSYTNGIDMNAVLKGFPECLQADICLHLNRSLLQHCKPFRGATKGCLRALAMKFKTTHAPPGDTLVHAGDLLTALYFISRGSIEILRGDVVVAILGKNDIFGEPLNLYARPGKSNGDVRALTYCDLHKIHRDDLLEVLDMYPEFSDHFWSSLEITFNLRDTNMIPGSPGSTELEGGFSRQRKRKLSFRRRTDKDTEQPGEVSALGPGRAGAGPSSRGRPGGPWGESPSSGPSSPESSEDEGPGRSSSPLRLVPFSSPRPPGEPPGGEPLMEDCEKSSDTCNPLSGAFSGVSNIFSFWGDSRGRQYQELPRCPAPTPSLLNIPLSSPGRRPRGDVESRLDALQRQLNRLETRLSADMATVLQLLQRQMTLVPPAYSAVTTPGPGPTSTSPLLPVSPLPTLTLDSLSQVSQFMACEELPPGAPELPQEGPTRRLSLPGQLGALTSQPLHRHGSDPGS
# protocol-text: hERG test (Predictor hERG Fluorescence Polarization Assay Kit)
# Type: binding
# protocol-conditions: human, probe tracer with high hERG affinity; at 30 μM; read-out: hERG inhibition rate
value-type: inhibition at 2 h, 30 µM

Param item = CCS(=O)(=O)N1CC(CC#N)(n2cc(-c3ccnc4[nH]ccc34)cn2)C1 [Crystalline form A] ; retrieve measured inhibition at 2 h, 30 µM.
< 50%
